# testSystem: T1, recombinant human 5T4 ECD protein fused to human Fc (human, UniProt Q13641 32-355)
# T1 construct: extracellular domain; Immunogen, ELISA antigen and Octet analyte; also called 5T4-ECD-hFc; 5T4-ECD-Fc; not shown: human Fc
# T1 sequence (looked up): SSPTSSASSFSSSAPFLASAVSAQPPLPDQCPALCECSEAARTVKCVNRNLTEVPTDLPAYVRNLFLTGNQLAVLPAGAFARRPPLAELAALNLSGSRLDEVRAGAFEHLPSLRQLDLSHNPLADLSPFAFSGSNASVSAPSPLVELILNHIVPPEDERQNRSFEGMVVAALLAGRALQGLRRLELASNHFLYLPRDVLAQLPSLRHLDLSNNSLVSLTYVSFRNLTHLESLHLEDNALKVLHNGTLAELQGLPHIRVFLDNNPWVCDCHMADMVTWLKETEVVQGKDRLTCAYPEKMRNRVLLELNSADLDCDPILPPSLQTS
# testDetails: Octet, mAb on AMC sensor, 5T4-ECD Fc as analyte
measuredProperty: pKd
FYI, pKd means -log10 of a concentration in mol per litre.

Query: pKd for mAb010 (antibody, V domains shown, also called mAb10; IM, 5T4 mouse hybridoma cl-10) VH: QVQLRQSGAELMKPGASVKLSCKATGYTFTGYWIEWVKQRPGHGLEWIGEILPGRGSSNYNEKFKGKATLTADTSSNTVYMQLSSLTIEDSAIYYCARGGRDFDYWGQGTTLTVSS VL: DIQMTQITSSLSASLGDRVTIGCSASQGINNNLNWYQQKPDGTVKLLVYYTSSLHSGVPSRFSGSGSGTDYSLTISNLEPEDIATYYCQQFIKLPYTFGGGTKLEIK ?
Response: 9.33
